- Tested system: c-Cbl (Homo sapiens (Human))
- Sequence (P22681 47-435): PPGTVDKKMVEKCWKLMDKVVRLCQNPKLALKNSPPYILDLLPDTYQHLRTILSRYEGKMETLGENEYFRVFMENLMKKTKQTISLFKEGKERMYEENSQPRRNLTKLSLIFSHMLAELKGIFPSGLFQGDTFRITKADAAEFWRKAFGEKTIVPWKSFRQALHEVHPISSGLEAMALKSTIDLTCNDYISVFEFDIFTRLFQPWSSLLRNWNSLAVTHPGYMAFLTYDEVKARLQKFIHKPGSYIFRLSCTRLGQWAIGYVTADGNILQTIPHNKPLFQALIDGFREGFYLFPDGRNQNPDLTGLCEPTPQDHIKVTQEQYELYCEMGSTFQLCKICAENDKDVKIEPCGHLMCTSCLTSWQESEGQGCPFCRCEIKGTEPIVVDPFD
- Measurement protocol: C-Cbl LCK Ub TR-FRET assay (c-cbl Lck HTRF)
- Type: biochemical
- Test settings: C-cbl Lck HTRF IC50 relative to Cbl-b Lck HTRF IC50
Measure name: (fold-selectivity) (x)
# number only, unit x dropped from output

Past entries and their recorded results:
Cc1cnnn1CC1(c2cccc(N3Cc4c(cc(CN5CCN(C)C[C@@H]5C(C)C)cc4C(F)(F)F)C3=O)c2)COC1 [Compound 222]    1.2
Cn1cnnc1CC1(c2cccc(N3Cc4c(cc(CN5CC[C@@H](CCl)C5)cc4C(F)(F)F)C3=O)c2)COC1    1.2

Shifting focus to the compound that follows.
Exercise: Value lookup for (fold-selectivity); key = "CC(C)[C@H]1CNCCN1Cc1cc2c(c(C(F)(F)F)c1)CN(c1cccc(C3([C@@H](F)c4nncn4C)COC3)c1)C2=O"
Solution: 1.5
